Every entry's value here was drawn from paper PMC2649788.

# system.tested: CYP2B6dH (Homo sapiens)
# test.protocol: 7-MFC O-deethylation inhibition in standard reconstitution system
# study.conditions: pH 7.4
experimental.readout: Km at 5 min (µM)
One number for each entry, in µM.

Ask | Which Km at 5 min is listed for COc1ccc2c(C(F)(F)F)cc(=O)oc2c1 [7-MFC, 7-Methoxy-4-(trifluoromethyl) coumarin] ?
Reply | 5.1

---

Answer each item with its documented ΔAmax (CYP2B6dH).
# system.tested: CYP2B6dH (Homo sapiens, UniProt P20813)
# test.protocol: Spectral binding
# study.conditions: difference spectra, 1 μM P450
One number for each entry.

Consider the following illustrative entries.
INSERT INTO measurements (molecule, reported_measurement) VALUES
  ('CN[C@H]1CC[C@@H](c2ccc(Cl)c(Cl)c2)c2ccccc21 [Sertraline, sertraline]', 0.008),
  ('Clc1ccccc1CN1CCc2sccc2C1 [Ticlopidine, ticlopidine]', 0.023),
  ('CCC(C)n1ncn(-c2ccc(N3CCN(c4ccc(OCC5COC(Cn6cncn6)(c6ccc(Cl)cc6Cl)O5)cc4)CC3)cc2)c1=O (stereo not shown) [Itraconazole, itraconazole]', 0.022);

// next entry
Ask | Return ΔAmax (CYP2B6dH) measured with CYP2B6dH (Homo sapiens, UniProt P20813) given this molecule: COC(=O)[C@H](c1ccccc1Cl)N1CCc2sccc2C1 [Clopidogrel, clopidogrel]
Reply | 0.026
